Test system: SK-MEL-2 melanoma
procedure.details: NCI tumour cell line growth inhibition, 48 h
Could you please report measured TGI for the items listed next?

Query string: Fill in TGI for record CN(C)CC1COC2Cc3ccccc3C1O2 (configuration not stated)
Result string: > 100 µM

Query string: Fill in TGI for record COc1ccc(N/N=C(\CCN(C)C)c2ccccc2)cc1
Result string: 18.9 µM

Query string: Fill in TGI for record COC(=O)Nc1nc2ccc(C(=O)c3ccc(N(C)C4COC4)cc3)cc2[nH]1
Result string: > 100 µM

Query string: Fill in TGI for record CC(=O)NNc1nc(C)c(C(/C=C/c2ccc([N+](=O)[O-])cc2)=N/NC(N)=S)s1
Result string: > 100 µM

Query string: Fill in TGI for record O=C(Cc1nc2ccccc2s1)C(=O)Nc1cccc(Cl)c1
Result string: > 100 µM

Query string: Fill in TGI for record O=Cc1ccc(-c2ccc(-c3nc4ccccc4o3)cc2)s1
Result string: > 100 µM

Query string: Fill in TGI for record Cc1nn(C(=O)c2ccncc2)c2c1C(c1ccccc1)SC(N)=N2 (configuration not stated)
Result string: > 10 µM

Query string: Fill in TGI for record CCCCCCCC/C=C\CCCCCCCC(=O)O
Result string: > 281 µM

Query string: Fill in TGI for record Cc1nccc2c3ccc(OCc4cn(-c5ccc(Cl)cc5)nn4)cc3n(CCCc3ccccc3)c12
Result string: > 33.3 µM

Query string: Fill in TGI for record Oc1ccccc1C=Nc1ccc(-c2nc3ccccc3[nH]2)cc1
Result string: > 100 µM

Query string: Fill in TGI for record Fc1ccc(-c2ncn(C3CCNCC3)c2-c2ccnc(Oc3ccc(F)c(F)c3)n2)cc1
Result string: 14.5 µM

Query string: Fill in TGI for record Cc1cc2cn3c4ccc(O)cc4[nH]c(=O)c3c2cc1C
Result string: 1.97 µM

Query string: Fill in TGI for record CC(C)C1CC2C(=O)N(c3ccccc3)C(=O)C2c2[nH]c3ccccc3c21 (configuration not stated)
Result string: > 100 µM

Query string: Fill in TGI for record COc1cc(Nc2ncc(F)c(Nc3ccc4c(n3)NC(=O)C(C)(C)O4)n2)cc(OC)c1OC
Result string: > 100 µM

Query string: Fill in TGI for record CCCCOC(=O)NC(Nc1cccc(C(F)(F)F)c1)(C(F)(F)F)C(F)(F)F
Result string: 99.1 µM

Query string: Fill in TGI for record Cc1c2c(n(CCc3ccccc3)c1C)N(C)N=C(C#N)S2(=O)=O
Result string: > 100 µM

Query string: Fill in TGI for record O=S(=O)(SCc1ccccc1)C(c1ccccc1)c1ccccc1
Result string: > 100 µM

Query string: Fill in TGI for record O=C1O[C@H]2[C@H](O)[C@@H](OC(=O)c3cc(O)c(O)c4c3[C@@H]3C1=CC(=O)C(O)(O)C3(O)O4)[C@H](OC(=O)c1cc(O)c(O)c(O)c1)O[C@@H]2CO (some centres not stated)
Result string: > 100 µM

Query string: Fill in TGI for record N#CSc1c[nH]c2ccc(/C=C/C(=O)/C=C(/C=C/c3ccc4[nH]cc(SC#N)c4c3)OB(F)F)cc12
Result string: 8.04 µM

Query string: Fill in TGI for record Cc1ccc2c(n1)C(=O)C=CC2=O
Result string: 32.3 µM

Query string: Fill in TGI for record N#CC(C#N)N=Nc1ccc(Br)cc1
Result string: 36.1 µM

Query string: Fill in TGI for record COC(=O)c1cccc(N[C@@H]2c3cc4c(cc3C(c3cc(OC)c(O)c(OC)c3)[C@H]3C(=O)OCC32)OCO4)c1 (some centres not stated)
Result string: > 63 µM

Query string: Fill in TGI for record CC(C)(C)c1cc2c(O)c(c1)Cc1cc(C(C#N)(Cc3ccc4ccccc4c3)Cc3ccc4ccccc4c3)cc(c1O)Cc1cc(C(C)(C)C)cc(c1O)Cc1cc(C(C#N)(Cc3ccc4ccccc4c3)Cc3ccc4ccccc4c3)cc(c1O)C2
Result string: > 100 µM

Query string: Fill in TGI for record N=C(N)c1ccc(-c2ccc(-c3ccccc3)s2)cc1
Result string: 4.1 µM

Query string: Fill in TGI for record Cc1cc(O)c(C2=NN(c3ccc(S(N)(=O)=O)cc3)C(c3ccc(N(C)C)cc3)C2)c(C)c1Cl (configuration not stated)
Result string: 43.6 µM

Query string: Fill in TGI for record C=C1C(=O)C[C@@]23CCC[C@@]12CC(OCOC)C3 (some centres not stated)
Result string: 11.2 µM

Query string: Fill in TGI for record CC(C)CCC[C@@H](C)C1CCC2[C@@H]3CC=C4C[C@@H](C(=O)NCC[N+](C)(C)CCCS(=O)(=O)[O-])CC[C@]4(C)C3CC[C@@]21C (some centres not stated)
Result string: 32.4 µM

Query string: Fill in TGI for record O=C(NNC(c1ccccc1)C(F)(F)F)c1ccncc1 (configuration not stated)
Result string: > 100 µM

Query string: Fill in TGI for record CCN(CC)CCNC(=O)c1ccc(I)cc1
Result string: > 100 µM

Query string: Fill in TGI for record CN1CCN(c2cc(C(=O)Nc3cc4cc(-c5cnn(C)c5)ccc4cn3)ccn2)CC1
Result string: 0.364 µM

Query string: Fill in TGI for record Cc1nc(-c2ccccc2)cc2c1c(=O)oc1ccccc12
Result string: > 100 µM

Query string: Fill in TGI for record O=C(c1ccccc1)c1oc2ccc(Br)cc2c1-c1cnn(-c2ccccc2)c1
Result string: > 100 µM
